METHOD: in vitro
TEST_CONTEXT: s9
Overview of reported hepatocyte CLint across a group of compounds:
Provide a numeric answer; units are not to be included.

>  <COMPOUND>
COc1ccc(-c2ccc(/C=C3\SC(=S)N(CC(=O)O)C3=O)o2)cc1Cl [Compound 1]

>  <MEASURE>
hepatocyte CLint

>  <RESULT>
5.6

$$$$

Per the records, this compound ( O=C(O)CN1C(=O)/C(=C/c2ccc(-c3cc(C(F)(F)F)ccc3Cl)o2)SC1=S [Compound 65] ) has hepatocyte CLint equal to 25

====

Consider the following compounds and their measured half-life readings.
METHOD: in vitro
TEST_CONTEXT: s9
The answer is to be given in h; state only the numeric part.

>  <COMPOUND>
COc1ccc(-c2ccc(/C=C3\SC(=S)N(CC(=O)O)C3=O)o2)cc1Cl

>  <half-life / h>
2.13

$$$$

// field: half-life; key: "O=C(O)CN1C(=O)/C(=C/c2ccc(-c3cc(C(F)(F)F)ccc3Cl)o2)SC1=S" ; value = 0.622

====

// UniProtKB P0DPI0 IC50 records
Sequence (P0DPI0 whole entry, looked up): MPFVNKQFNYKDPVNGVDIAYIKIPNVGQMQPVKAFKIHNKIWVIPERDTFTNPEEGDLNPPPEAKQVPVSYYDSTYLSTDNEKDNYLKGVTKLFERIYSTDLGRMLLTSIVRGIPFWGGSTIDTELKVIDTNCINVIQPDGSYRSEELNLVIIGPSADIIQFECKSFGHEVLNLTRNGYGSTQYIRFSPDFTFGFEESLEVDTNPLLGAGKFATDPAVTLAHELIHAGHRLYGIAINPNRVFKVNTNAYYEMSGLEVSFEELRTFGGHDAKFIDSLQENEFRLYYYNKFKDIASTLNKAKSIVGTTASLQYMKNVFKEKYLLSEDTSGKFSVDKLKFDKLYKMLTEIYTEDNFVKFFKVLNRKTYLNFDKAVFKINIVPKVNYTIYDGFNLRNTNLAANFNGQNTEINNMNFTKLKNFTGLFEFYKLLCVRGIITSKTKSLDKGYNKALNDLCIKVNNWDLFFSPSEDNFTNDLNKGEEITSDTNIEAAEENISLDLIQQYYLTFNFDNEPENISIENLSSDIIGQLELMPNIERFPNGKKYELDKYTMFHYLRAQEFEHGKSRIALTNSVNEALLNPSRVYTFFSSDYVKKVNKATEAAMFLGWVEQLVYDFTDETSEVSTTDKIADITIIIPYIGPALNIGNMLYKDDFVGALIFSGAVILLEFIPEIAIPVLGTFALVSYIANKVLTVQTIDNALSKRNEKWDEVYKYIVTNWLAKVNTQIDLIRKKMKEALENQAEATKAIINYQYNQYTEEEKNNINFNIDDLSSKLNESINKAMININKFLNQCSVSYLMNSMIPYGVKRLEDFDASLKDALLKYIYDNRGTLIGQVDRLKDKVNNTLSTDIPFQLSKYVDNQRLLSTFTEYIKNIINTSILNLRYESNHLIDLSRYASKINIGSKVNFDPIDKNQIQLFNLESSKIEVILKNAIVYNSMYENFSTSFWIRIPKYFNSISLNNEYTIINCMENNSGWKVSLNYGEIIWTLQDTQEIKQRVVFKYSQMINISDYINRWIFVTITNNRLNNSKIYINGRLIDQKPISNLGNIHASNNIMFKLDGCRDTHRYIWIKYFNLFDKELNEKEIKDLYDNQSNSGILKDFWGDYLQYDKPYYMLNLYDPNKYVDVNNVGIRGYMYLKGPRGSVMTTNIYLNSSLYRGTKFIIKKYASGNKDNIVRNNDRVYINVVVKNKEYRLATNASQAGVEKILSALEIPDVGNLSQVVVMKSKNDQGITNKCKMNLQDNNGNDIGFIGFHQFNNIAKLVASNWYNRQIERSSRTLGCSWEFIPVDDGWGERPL
Expressed in µM, but write only the number.

>  <COMPOUND>
O=C(O)CN1C(=O)/C(=C/c2csc3ccc(Br)cc23)SC1=S

>  <IC50 [µM]>
74.3

$$$$
>  <COMPOUND>
O=C(O)CN1C(=O)/C(=C/c2cccc3c2oc2ccccc23)SC1=S

>  <IC50 [µM]>
160

$$$$
>  <COMPOUND>
Cc1ccc(-c2cc(C=C3SC(=S)N(CC(=O)O)C3=O)no2)cc1

>  <IC50 [µM]>
130

$$$$
>  <COMPOUND>
O=C(O)CN1C(=O)/C(=C/c2ccc(-c3ccc([N+](=O)[O-])cc3Cl)o2)SC1=S

>  <IC50 [µM]>
11.8

$$$$

// next entry
The molecule listed as "O=C1/C(=C/c2cn(-c3ccccc3)nc2-c2ccc(S(=O)(=O)N3CCOCC3)cc2)SC(=S)N1CCS(=O)(=O)O" has a reported IC50 of 85

====

TEST_CONTEXT: rat
Plasma Stab. T = 30 min (l) values, listed per item
Express it in %; write the number only.

Sample answers from the record:
>  <COMPOUND>
O=C(O)CN1C(=O)/C(=C/c2ccc(-c3cccs3)s2)SC1=S

>  <RESULT>
90

$$$$
>  <COMPOUND>
O=C(O)CN1C(=O)/C(=C/c2ccc(-c3ccc(Cl)c(Cl)c3)o2)SC1=S

>  <RESULT>
79

$$$$
>  <COMPOUND>
O=C(O)CN1C(=O)/C(=C/c2ccc(-c3cc(C(F)(F)F)ccc3Cl)o2)SC1=S

>  <RESULT>
82

$$$$

Then there is this compound:
# Plasma Stab. T = 30 min (l) (compound: "COc1ccc(-c2ccc(/C=C3\SC(=S)N(CC(=O)O)C3=O)o2)cc1Cl" ) is 90

====

Reported IC50 is given for each of the following molecules.
TESTED_TARGET: lethal factor (LF) (Bacillus anthracis, UniProt P15917)
Sequence (P15917 34-809 limits assumed): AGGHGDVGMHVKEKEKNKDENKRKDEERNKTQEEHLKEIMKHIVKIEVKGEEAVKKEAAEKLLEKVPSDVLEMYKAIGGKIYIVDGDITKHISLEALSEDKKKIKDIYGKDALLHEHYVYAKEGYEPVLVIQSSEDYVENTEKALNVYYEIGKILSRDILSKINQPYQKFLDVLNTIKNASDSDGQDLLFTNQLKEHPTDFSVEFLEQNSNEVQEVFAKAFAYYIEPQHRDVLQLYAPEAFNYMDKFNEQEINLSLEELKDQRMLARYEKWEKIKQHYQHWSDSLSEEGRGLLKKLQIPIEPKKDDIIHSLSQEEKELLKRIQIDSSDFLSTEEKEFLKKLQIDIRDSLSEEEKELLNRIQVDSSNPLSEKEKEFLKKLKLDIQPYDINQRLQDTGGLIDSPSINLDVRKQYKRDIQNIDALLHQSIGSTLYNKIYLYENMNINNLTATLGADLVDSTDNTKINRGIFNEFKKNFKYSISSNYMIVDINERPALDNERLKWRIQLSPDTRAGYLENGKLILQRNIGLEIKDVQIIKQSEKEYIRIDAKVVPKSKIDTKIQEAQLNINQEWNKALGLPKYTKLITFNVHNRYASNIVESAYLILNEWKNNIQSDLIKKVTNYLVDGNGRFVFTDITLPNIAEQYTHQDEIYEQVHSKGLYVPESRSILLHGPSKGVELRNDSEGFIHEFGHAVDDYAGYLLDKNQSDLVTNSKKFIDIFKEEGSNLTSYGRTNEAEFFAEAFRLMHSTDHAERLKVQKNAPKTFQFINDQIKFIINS
METHOD: biochemical
Assay type: biochemical
TEST_CONTEXT: read-out: IC50 (μM) of selected LF compounds (Table 7)
Provide only the numeric value, understood in µM.

>  <COMPOUND>
O=C(O)CN1C(=O)/C(=C/c2ccc(-c3cccs3)s2)SC1=S

>  <IC50, µM>
2.3

$$$$
>  <COMPOUND>
O=C(O)CN1C(=O)/C(=C/c2ccc(-c3cc(C(F)(F)F)ccc3Cl)o2)SC1=S

>  <IC50, µM>
0.19

$$$$

Kindly consider the entry below.
IC50 in this record for "O=C(O)CN1C(=O)/C(=C/c2ccc(-c3ccc(Cl)c(Cl)c3)o2)SC1=S" : 0.26
